# test_protocol: Ratio of drug concentration in brain to plasma of Sprague-Dawley rat at 50 mg/kg, po measured after 60 to 180 mins by LC/MS-MS analysis
# Assay type: ADME, organism-based
# condition_label: time 60-180 min
experimental_endpoint: Kp
Returns: the value as a bare number; no unit string appended.

What value of Kp has been recorded for this entry: O=C(NO)c1ccc(CNc2cccc3cccnc23)cc1
1.01

====

# target_desc: Protein deacetylase HDAC6 (Homo sapiens)
# Sequence (Q9UBN7 whole entry): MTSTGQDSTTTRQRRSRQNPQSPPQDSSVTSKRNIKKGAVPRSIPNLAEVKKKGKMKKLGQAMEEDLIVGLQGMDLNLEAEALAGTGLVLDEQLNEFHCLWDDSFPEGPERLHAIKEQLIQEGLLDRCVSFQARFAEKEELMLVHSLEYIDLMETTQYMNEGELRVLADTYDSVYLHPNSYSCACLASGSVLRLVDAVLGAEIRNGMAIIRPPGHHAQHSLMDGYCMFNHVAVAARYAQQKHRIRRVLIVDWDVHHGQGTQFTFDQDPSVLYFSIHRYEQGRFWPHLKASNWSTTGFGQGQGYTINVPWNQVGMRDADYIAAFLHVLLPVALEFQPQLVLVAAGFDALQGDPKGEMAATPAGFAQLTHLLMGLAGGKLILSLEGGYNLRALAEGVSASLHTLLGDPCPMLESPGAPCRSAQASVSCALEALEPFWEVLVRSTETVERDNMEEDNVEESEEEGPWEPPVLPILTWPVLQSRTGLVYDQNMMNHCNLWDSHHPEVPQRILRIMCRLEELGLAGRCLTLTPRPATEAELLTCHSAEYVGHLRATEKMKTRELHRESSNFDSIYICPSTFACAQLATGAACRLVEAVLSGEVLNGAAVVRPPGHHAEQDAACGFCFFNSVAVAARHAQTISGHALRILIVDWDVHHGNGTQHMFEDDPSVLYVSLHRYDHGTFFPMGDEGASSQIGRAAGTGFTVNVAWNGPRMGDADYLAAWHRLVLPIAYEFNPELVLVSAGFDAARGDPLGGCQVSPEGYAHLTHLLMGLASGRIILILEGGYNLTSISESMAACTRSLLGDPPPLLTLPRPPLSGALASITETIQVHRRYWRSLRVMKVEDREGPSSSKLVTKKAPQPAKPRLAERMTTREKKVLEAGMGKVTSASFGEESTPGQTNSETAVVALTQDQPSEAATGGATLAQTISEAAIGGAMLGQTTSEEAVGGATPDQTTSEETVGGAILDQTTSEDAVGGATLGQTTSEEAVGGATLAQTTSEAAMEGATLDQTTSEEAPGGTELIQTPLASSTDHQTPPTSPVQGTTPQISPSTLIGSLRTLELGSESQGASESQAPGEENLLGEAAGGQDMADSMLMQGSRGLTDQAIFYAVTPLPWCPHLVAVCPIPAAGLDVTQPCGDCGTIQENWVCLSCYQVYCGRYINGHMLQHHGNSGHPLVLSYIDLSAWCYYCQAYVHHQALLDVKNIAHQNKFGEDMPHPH
pIC50: −log10 of the molar value.
Mark Criterion not met for pIC50 values under 8, and Criterion met for everything at or above.

Reported pIC50 at or above 8? O=C(NO)c1ccc(CN2CCCCc3ccc(F)cc32)cc1
Criterion not met

Now consider O=C(NO)c1ccc(CN2CCCSc3ccccc32)cc1 .
Criterion met

Same read-out for COc1cccc2c1CCN(Cc1ccc(C(=O)NO)cc1)CC2 ?
Criterion not met

// query: COc1ccc(Br)c2c1CCN(Cc1ccc(C(=O)NO)cc1)CC2
Criterion not met

Repeat for the following compound: O=C(NO)c1ccc(CN2CCc3ccccc3CC2)cc1
Criterion not met

Thanks! And COc1ccc2c(c1)CCN(Cc1ccc(C(=O)NO)cc1)CC2 ?
Criterion not met
